# Test system: MS2 coat protein
# Protocol summary: apparent KD of MS2 coat protein; higher = weaker reporter binding
# Applied conditions: Eterna round: R107; input ligand: tryptophan 2.4 mM
Result type: apparent KD of MS2 coat protein
I'd appreciate it if you included the unit after the number.

INPUT: Fill in: apparent KD of MS2 coat protein of GUCCGACAUGAGGAUCACCCAUGUACUGAAGGAGCGGACAAAUGUCCAGGUAGGUCGCAGCUAUAUGGUGUGGACCGAUCCGGAC [Ustius] is ___
OUTPUT: 22.4 nM

INPUT: What does the data say about its apparent KD of MS2 coat protein? Entry: UCAGUGCAAGGAAGGAGCGGGUACAUGAGGAUCACCCAUGUGCAAGUGGUGAGCGUUUGUGCCCAGGUAGGUCGCCUAGCCUGGU [XArg-B18]
OUTPUT: 159 nM

* * *

apparent KD of MS2 coat protein overview
# System: MS2 coat protein
# Protocol summary: apparent KD of MS2 coat protein, switch ON state; designed switch direction (-1 OFF switch, 1 ON switch): -1; higher = weaker reporter binding
# Applied conditions: FMN input: 0 or 200 uM; Eterna round: R93 (includes R88 designs)
Expressed in nM, but write only the number.

>  <Sequence code>
AAAAAGUUAGGAUAUACAUGAGGAUCACCCAUGUGCACAUAUGGAGAAUAUGGUAGUAGUAGAAGGGACAAAAA [EX2 Malc#16]

>  <Reported>
30.3

$$$$
>  <Sequence code>
GAUAGGCGAGGAUAUACAUGAGGAUCACCCAUGUAAGUAAGCCUGGCUGAAACUGAAUGUAGAAGGCGCAAAUU [Mat - Exclusion 3 - Neo mod - D70]

>  <Reported>
17.8

$$$$
>  <Sequence code>
AAAAAACAUGAGGAUCACCCAUGUAAGGAUAUGUAAAACCCAUAUAAAAAGGGAAAAAACAGAAGGUGCAAAAA [wbt round 1 mod 6]

>  <Reported>
35.1

$$$$
>  <Sequence code>
AAUUAGGUAGGAUAUACAUGAGGAUCACCCAUGUAGGAAAAAAGCUACGAAAAAGAAUGUAGAAGGACCUAAAA [Ex 3 Sunny]

>  <Reported>
13.2

$$$$
>  <Sequence code>
CUUAUGUGAGGAUAUCAGUAGUAAAAAAAAAAAAUUACUACUGAGAAGGCACAUGAGGAUCACCCAUGUGCAUU [EX4 322: Super Stable 22]

>  <Reported>
30.3

$$$$
>  <Sequence code>
UAAAAUAAAGGAUAUAAAACAGAGGAUAUACAUAAAUAAAAACAUGAGGAUCACCCAUGUAGAAGGCUGAAAAU [Meechl Ex2 R2 m1]

>  <Reported>
29

$$$$

INPUT: What value of apparent KD of MS2 coat protein has been recorded for this entry: AAAAAGUCAGGAUAUGUCAAAAGUCACAAAAGUGACAAAAGACAGAAGGGACAUGAGGAUCACCCAUGUGGAAA [Mod of Eli - Late G segment 1]
OUTPUT: 89.3

INPUT: I would be grateful if you could share the reported apparent KD of MS2 coat protein for CAAAAACAUGAGGAUCACCCAUGUGAGGAUAUACGAAAGUAGAAGGCACUAAAACAAAACAGAAGGACAAAACA [Meechl Ex1 R2 m3] .
OUTPUT: 17.9

INPUT: # query: apparent KD of MS2 coat protein of entry AGUCAGAGAGGAUAUACAUGGGAAAAAAAAGUAAGAUCCCUACAUGAGGAUCACCCAUGUAGAAGGCUCUGACA [Ex2 Design 139: Sub-opt 3]
OUTPUT: 22.6

INPUT: Which value of apparent KD of MS2 coat protein has been reported for AAAAACCGAGGAUAUACAUGAGGAUCACCCAUGUAAAAAAAAAAAAAGGGAAAAAAAAGUAGAAGGCGGAAAAA [Djehuti Sekhemresementawy] in the records?
OUTPUT: 26.2

INPUT: What value of apparent KD of MS2 coat protein has been recorded for this entry: AAACGUAGAGGAUAUACAUAAGUAUUACGAAAGUAAUACAAACAUGAGGAUCACCCAUGUAGAAGGCUACGAAA [MOD2 of Meechl's MS2 Ex2 (MS2 riboswitches - Exlclusion 2)]
OUTPUT: 24.9

INPUT: What apparent KD of MS2 coat protein value was documented for this sequence, AAAAAGGGAGGAUAUGCAUACACAAAAAAAAAAAAAAAAAAACAUGAGGAUCACCCAUGUAGAAGGCCCAAAAA [Dora Explored 3 - Jieux - Exclusion 2] ?
OUTPUT: 37.4

INPUT: Given the sequence AAGAACGUAGGAUAUACAUGAGGAUCACCCAUGUAAAAGAAAGAAAGGGAAAAGAAAAGUAGAAGGACGAAGAA [Hedjkheperre-setepenre Shoshenq I] , what is its reported apparent KD of MS2 coat protein?
OUTPUT: 29.7

INPUT: What apparent KD of MS2 coat protein value was documented for this sequence, AAAUGACAUGAGGAUCACCCAUGUCAGGAUAUGACUUGAAAAUAAAAUAAAAAACAUGUCAGAAGGGACAUGAA [Design 49: Sub-opt EB] ?
OUTPUT: 13.5

INPUT: # input sequence: AGAAAGCGAGGAUAUGCACGGGAAGAAAGAAGAGAGAAAAAACAUGAGGAUCACCCAUGUAGAAGGUGUAUAAA [JR_Exc002_Sub1713] ; wanted: its apparent KD of MS2 coat protein
OUTPUT: 38.4

INPUT: Quick one: apparent KD of MS2 coat protein for AACUGACAUGAGGAUCACCCAUGUCAGGAUAUGACUUCGAAAAAAAAAAAAAACGAUGUCAGAAGGGACAUGGA [Design 66: Sub-opt N] ?
OUTPUT: 17.5

INPUT: I would be grateful if you could share the reported apparent KD of MS2 coat protein for AAAAAGUCAGGAUAUGCGAAGGCGUCUGAUAGACGAGGCUAGCAGAAGGGACAUGAGGAUCACCCAUGUAAAAA [Mat - Mod of Nando] .
OUTPUT: 50.5

INPUT: What does the data say about its apparent KD of MS2 coat protein? Entry: AAAAAGGCAGGAUAUACAUGAGGAUCACCCAUGUAAAAAAAAAAAAAAGGGAAAAAAAGUAGAAGGGCCAAAAA [Along]
OUTPUT: 31.1

INPUT: // lookup apparent KD of MS2 coat protein for AACAGUACAGGAUAUACAUGAGGAUCACCCAUGUGGGAGAAAAGAUCGAGAGAUCAAUGUAGAAGGGUACUGGA [JL In the Red 07]
OUTPUT: 115

INPUT: Requested read-out: apparent KD of MS2 coat protein. Entry: AAAGAGCAAGGAUAUACAUGAGGAUCACCCAUGUAUGGAGAUACAAAACAAAAGAUCAGUAGAAGGUGCGGAUG [Rageleor]
OUTPUT: 20.3

INPUT: What measured apparent KD of MS2 coat protein goes with AGUCGGCGAGGAUAUACAUGAGGAUCACCCAUGUGAGAGAAAAAAGUGAGAAAGAAAUGUAGAAGGCGCUGACA [JL Lego Mod 1] ?
OUTPUT: 90.8

INPUT: State the recorded apparent KD of MS2 coat protein for this entry: AACAAACAUGAGGAUCACCCAUGUGAGGAUAUGAAAAUAAAUAAAAAUAAAAUAAAAAUCAGAAGGCACAACAA [JR_Exc001_Sub003]
OUTPUT: 25.6

* * *

# System: MS2 coat protein
# Protocol summary: apparent KD of MS2 coat protein; designed switch direction (-1 OFF switch, 1 ON switch): 1; higher = weaker reporter binding
# Applied conditions: input ligand: FMN 200 uM
apparent KD of MS2 coat protein of 100 nM or higher: Satisfied. Under 100 nM: Not satisfied.

>  <Sequence code>
UAGGUUGAGCAAGGAUAUCCAAGAUUGAUUCGUAUCGACAUGAGGAUCACCCAUGUCCCGAGAAGGGAGAAGGUGCGUCCAACC [Eternabot solution 30] (Eterna round: R96, puzzle: Same State NG 2)

>  <Category>
Not satisfied

$$$$

INPUT: Identify whether the reported apparent KD of MS2 coat protein of the following sequence is 100 nM or greater: AGCUAUUACGAAGGAUAUUGUGACAUGAGGAUCACCCAUGUUUACAUGAUUAAUUGUGAUCACGUCGAGAAGGUUGUACUAACA [SameState NG2 #32] (Eterna round: R96, puzzle: Same State NG 2)
OUTPUT: Not satisfied

INPUT: Confirm if apparent KD of MS2 coat protein reported for the sequence CUUUUUCCUUUUACAUGAGGAUCACCCAUGUUUUCAUAUUGAGAGGAUAUCGUAUUUGGAAUUUUCGAGAAGGCUCAUUUGUAU [JR_SSNG3_Sub075] (Eterna round: R96, puzzle: Same State NG 3) is 100 nM or above.
OUTPUT: Not satisfied

INPUT: Is apparent KD of MS2 coat protein at least 100 nM? Consider AGCUAAUACGAAGGAUAUACUGACAUGAGGAUCACCCAUGUCUACAUGAUUUAUUGUGAUCACAUGUAGAAGGUCGUACUAACA [SameState NG2 #23] (Eterna round: R96, puzzle: Same State NG 2)
OUTPUT: Not satisfied

INPUT: Say whether GCAAAGGCGGUAGGAUAUCUAGGAUAUGGGAAAGACUAAGUCUGUAGGUCACCUAACCCAGAAGGAGAGAAGGACACCGAAAGG [pwkr ssNG2 2FMN + F9.25] (Eterna round: R96, puzzle: Same State NG 2) shows apparent KD of MS2 coat protein of 100 nM or more.
OUTPUT: Satisfied

These measurements were taken from the supplement of paper PMC9170038.
